Data origin: patent US20180305450A1

# Test Target: T1, recombinant biotinylated human PAR2 extracellular domain (residues 1-75), N-terminal AviTag, C-terminal Flag … (human, UniProt P55085 26-75, biotin on the AviTag (enzymatic biotinylation))
# T1 construct: also called Bio-human-PAR2 ECD; human PAR2 ECD; not shown: N-terminal AviTag (Avidity LLC); C-terminal Flag and poly Histidine tags
# T1 sequence (P55085 26-75): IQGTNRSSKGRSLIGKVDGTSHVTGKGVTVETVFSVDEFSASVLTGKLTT
# Test Protocol: HTRF competition with Dylight650-Par0067 IgG, IgG
Rule: Fold IC50 (pH 6.0 v pH 7.4) below 20 fold gives Condition met. Equal to or above 20 fold gives Condition not met.

# Binder, Assigned Class
measured = [
    ("PaB670084 IgG (antibody, V domains shown, IgG1-TM (L234F, L235E, P331S), human lambda light chain; also called ZZ1PXA-A05) VH: EVQLLESGGGLVQPGGSLRLSCAASGFTFSSYAMNWVRQAPGKGLEWVSTISHSGHLIHHADSHKGRFTISRDNSKNTLYLQMNSLRAEDTAVYYCARINNDPMDVWGQGTLVTVSS VL: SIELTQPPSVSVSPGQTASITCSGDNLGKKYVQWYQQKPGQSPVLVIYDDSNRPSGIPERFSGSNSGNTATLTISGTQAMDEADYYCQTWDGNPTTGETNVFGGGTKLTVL", "Condition met"),
    ("Par0067 IgG (antibody, V domains shown, IgG1-TM (L234F, L235E, P331S), human lambda light chain; also called ZZ15D2-D02; parent Par0067 IgG) VH: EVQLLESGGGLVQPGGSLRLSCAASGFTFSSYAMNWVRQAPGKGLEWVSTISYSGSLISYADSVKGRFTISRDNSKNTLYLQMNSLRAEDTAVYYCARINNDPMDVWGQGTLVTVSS VL: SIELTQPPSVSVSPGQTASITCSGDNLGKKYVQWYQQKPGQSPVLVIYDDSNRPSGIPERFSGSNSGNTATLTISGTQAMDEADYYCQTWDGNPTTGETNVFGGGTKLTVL", "Condition met"),
    ("PaB670153 IgG (antibody, V domains shown, IgG1-TM (L234F, L235E, P331S), human lambda light chain) VH: EVQLLESGGGLVQPGGSLRLSCAASGFTFSSYAMNWVRQAPGKGLEWVSTISYHGHHISYADSHHHRFTISRDNSKNTLYLQMNSLRAEDTAVYYCARINNDPMDVWGQGTLVTVSS VL: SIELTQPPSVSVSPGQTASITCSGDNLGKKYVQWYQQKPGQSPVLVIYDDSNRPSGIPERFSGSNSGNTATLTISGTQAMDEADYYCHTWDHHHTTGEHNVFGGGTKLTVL", "Condition met"),
    ("PaB670158 IgG (antibody, V domains shown, IgG1-TM (L234F, L235E, P331S), human lambda light chain) VH: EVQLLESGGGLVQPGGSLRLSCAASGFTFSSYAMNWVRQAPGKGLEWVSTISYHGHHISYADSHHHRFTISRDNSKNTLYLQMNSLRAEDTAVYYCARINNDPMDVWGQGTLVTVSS VL: SIELTQPPSVSVSPGQTASITCSGDNLGKKYVQWYQQKPGQSPVLVIYDDSNRPSGIPERFSGSNSGNTATLTISGTQAMDEADYYCQTWDGHHHTGETNHFGGGTKLTVL", "Condition not met"),
    ("PaB670160 IgG (antibody, V domains shown, IgG1-TM (L234F, L235E, P331S), human lambda light chain) VH: EVQLLESGGGLVQPGGSLRLSCAASGFTFSSYAMNWVRQAPGKGLEWVSTISYSGSLISYADSVKGRFTISRDNSKNTLYLQMNSLRAEDTAVYYCARINHDPMDVWGQGTLVTVSS VL: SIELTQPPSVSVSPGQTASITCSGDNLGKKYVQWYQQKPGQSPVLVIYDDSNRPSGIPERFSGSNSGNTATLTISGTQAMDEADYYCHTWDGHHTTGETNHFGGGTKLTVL", "Condition not met"),
]
